Hello, the source for this data is BigSolDB 2.1, in case you need it.

details: in n-propyl acetate, 293.15 K
Readout: solubility (mole fraction)

* Cc1cc(Cl)ccc1OCC(=O)O | 0.127

----------
details: in isobutanol, 278.15 K
Readout: solubility (mole fraction)

- Cc1cc(Cl)ccc1OCC(=O)O: 0.0895

----------
conditions: in n-propanol, 298.15 K
Readout: solubility (mole fraction)

- Cc1cc(Cl)ccc1OCC(=O)O: 0.238

----------
details: in n-propanol, 318.15 K
Readout: solubility (mole fraction)

* Cc1cc(Cl)ccc1OCC(=O)O | 0.46

----------
conditions: in isobutanol, 283.15 K
Readout: solubility (mole fraction)

- Cc1cc(Cl)ccc1OCC(=O)O: 0.111

----------
conditions: in n-butyl acetate, 288.15 K
Readout: solubility (mole fraction)

• Cc1cc(Cl)ccc1OCC(=O)O = 0.106

----------
settings: in acetone, 278.15 K
Readout: solubility (mole fraction)

• Cc1cc(Cl)ccc1OCC(=O)O = 0.158

----------
conditions: in acetonitrile, 283.15 K
Readout: solubility (mole fraction)

• Cc1cc(Cl)ccc1OCC(=O)O = 0.0342

----------
settings: in acetone, 308.15 K
Readout: solubility (mole fraction)

• Cc1cc(Cl)ccc1OCC(=O)O = 0.258

----------
conditions: in n-propanol, 288.15 K
Readout: solubility (mole fraction)

* Cc1cc(Cl)ccc1OCC(=O)O | 0.159

----------
settings: in ethyl acetate, 298.15 K
Readout: solubility (mole fraction)

• Cc1cc(Cl)ccc1OCC(=O)O = 0.146

----------
details: in isobutanol, 323.15 K
Readout: solubility (mole fraction)

• Cc1cc(Cl)ccc1OCC(=O)O = 0.558

----------
conditions: in n-propyl acetate, 313.15 K
Readout: solubility (mole fraction)

* Cc1cc(Cl)ccc1OCC(=O)O | 0.211

----------
conditions: in toluene, 283.15 K
Readout: solubility (mole fraction)

- Cc1cc(Cl)ccc1OCC(=O)O: 0.00904

----------
conditions: in n-butyl acetate, 318.15 K
Readout: solubility (mole fraction)

• Cc1cc(Cl)ccc1OCC(=O)O = 0.247

----------
conditions: in ethyl acetate, 308.15 K
Readout: solubility (mole fraction)

- Cc1cc(Cl)ccc1OCC(=O)O: 0.192

----------
settings: in n-propanol, 313.15 K
Readout: solubility (mole fraction)

- Cc1cc(Cl)ccc1OCC(=O)O: 0.405

----------
details: in ethanol, 308.15 K
Readout: solubility (mole fraction)

• Cc1cc(Cl)ccc1OCC(=O)O = 0.424

----------
settings: in isobutanol, 298.15 K
Readout: solubility (mole fraction)

* Cc1cc(Cl)ccc1OCC(=O)O | 0.214

----------
conditions: in acetonitrile, 303.15 K
Readout: solubility (mole fraction)

- Cc1cc(Cl)ccc1OCC(=O)O: 0.0968

----------
conditions: in isopropanol, 278.15 K
Readout: solubility (mole fraction)

- Cc1cc(Cl)ccc1OCC(=O)O: 0.123

----------
settings: in methyl acetate, 323.15 K
Readout: solubility (mole fraction)

- Cc1cc(Cl)ccc1OCC(=O)O: 0.318

----------
conditions: in n-propanol, 308.15 K
Readout: solubility (mole fraction)

* Cc1cc(Cl)ccc1OCC(=O)O | 0.342

----------
conditions: in n-butyl acetate, 323.15 K
Readout: solubility (mole fraction)

• Cc1cc(Cl)ccc1OCC(=O)O = 0.296

----------
conditions: in isopropanol, 288.15 K
Readout: solubility (mole fraction)

- Cc1cc(Cl)ccc1OCC(=O)O: 0.154

----------
settings: in isobutanol, 318.15 K
Readout: solubility (mole fraction)

* Cc1cc(Cl)ccc1OCC(=O)O | 0.454

----------
details: in toluene, 303.15 K
Readout: solubility (mole fraction)

* Cc1cc(Cl)ccc1OCC(=O)O | 0.0214

----------
details: in isopropanol, 303.15 K
Readout: solubility (mole fraction)

- Cc1cc(Cl)ccc1OCC(=O)O: 0.237

----------
conditions: in ethyl formate, 303.15 K
Readout: solubility (mole fraction)

- Cc1cc(Cl)ccc1OCC(=O)O: 0.107

----------
conditions: in isobutanol, 303.15 K
Readout: solubility (mole fraction)

* Cc1cc(Cl)ccc1OCC(=O)O | 0.265

----------
settings: in ethanol, 293.15 K
Readout: solubility (mole fraction)

- Cc1cc(Cl)ccc1OCC(=O)O: 0.235

----------
conditions: in ethanol, 283.15 K
Readout: solubility (mole fraction)

• Cc1cc(Cl)ccc1OCC(=O)O = 0.151

----------
settings: in n-propanol, 323.15 K
Readout: solubility (mole fraction)

• Cc1cc(Cl)ccc1OCC(=O)O = 0.54

----------
conditions: in acetone, 318.15 K
Readout: solubility (mole fraction)

* Cc1cc(Cl)ccc1OCC(=O)O | 0.301

----------
conditions: in toluene, 308.15 K
Readout: solubility (mole fraction)

* Cc1cc(Cl)ccc1OCC(=O)O | 0.0274

----------
settings: in isobutanol, 308.15 K
Readout: solubility (mole fraction)

- Cc1cc(Cl)ccc1OCC(=O)O: 0.332

----------
details: in ethyl acetate, 283.15 K
Readout: solubility (mole fraction)

- Cc1cc(Cl)ccc1OCC(=O)O: 0.104

----------
details: in ethyl acetate, 293.15 K
Readout: solubility (mole fraction)

* Cc1cc(Cl)ccc1OCC(=O)O | 0.127

----------
conditions: in n-butyl acetate, 303.15 K
Readout: solubility (mole fraction)

- Cc1cc(Cl)ccc1OCC(=O)O: 0.162

----------
conditions: in acetonitrile, 313.15 K
Readout: solubility (mole fraction)

* Cc1cc(Cl)ccc1OCC(=O)O | 0.159

----------
conditions: in acetone, 298.15 K
Readout: solubility (mole fraction)

• Cc1cc(Cl)ccc1OCC(=O)O = 0.22

----------
conditions: in ethanol, 303.15 K
Readout: solubility (mole fraction)

* Cc1cc(Cl)ccc1OCC(=O)O | 0.352

----------
conditions: in ethyl formate, 313.15 K
Readout: solubility (mole fraction)

- Cc1cc(Cl)ccc1OCC(=O)O: 0.14

----------
details: in ethanol, 298.15 K
Readout: solubility (mole fraction)

* Cc1cc(Cl)ccc1OCC(=O)O | 0.3

----------
conditions: in acetonitrile, 323.15 K
Readout: solubility (mole fraction)

* Cc1cc(Cl)ccc1OCC(=O)O | 0.248

----------
settings: in isopropanol, 283.15 K
Readout: solubility (mole fraction)

- Cc1cc(Cl)ccc1OCC(=O)O: 0.134

----------
conditions: in methyl acetate, 313.15 K
Readout: solubility (mole fraction)

* Cc1cc(Cl)ccc1OCC(=O)O | 0.234

----------
conditions: in ethanol, 278.15 K
Readout: solubility (mole fraction)

- Cc1cc(Cl)ccc1OCC(=O)O: 0.125

----------
settings: in ethyl acetate, 288.15 K
Readout: solubility (mole fraction)

* Cc1cc(Cl)ccc1OCC(=O)O | 0.116

----------
conditions: in methyl acetate, 293.15 K
Readout: solubility (mole fraction)

• Cc1cc(Cl)ccc1OCC(=O)O = 0.134

----------
settings: in n-propyl acetate, 308.15 K
Readout: solubility (mole fraction)

* Cc1cc(Cl)ccc1OCC(=O)O | 0.182

----------
conditions: in n-butyl acetate, 308.15 K
Readout: solubility (mole fraction)

- Cc1cc(Cl)ccc1OCC(=O)O: 0.185

----------
conditions: in isopropanol, 293.15 K
Readout: solubility (mole fraction)

* Cc1cc(Cl)ccc1OCC(=O)O | 0.175

----------
conditions: in toluene, 288.15 K
Readout: solubility (mole fraction)

• Cc1cc(Cl)ccc1OCC(=O)O = 0.011

----------
conditions: in acetone, 303.15 K
Readout: solubility (mole fraction)

- Cc1cc(Cl)ccc1OCC(=O)O: 0.239

----------
conditions: in n-propyl acetate, 283.15 K
Readout: solubility (mole fraction)

• Cc1cc(Cl)ccc1OCC(=O)O = 0.103

----------
details: in methyl acetate, 283.15 K
Readout: solubility (mole fraction)

- Cc1cc(Cl)ccc1OCC(=O)O: 0.106

----------
details: in ethanol, 318.15 K
Readout: solubility (mole fraction)

• Cc1cc(Cl)ccc1OCC(=O)O = 0.561

----------
details: in ethanol, 313.15 K
Readout: solubility (mole fraction)

* Cc1cc(Cl)ccc1OCC(=O)O | 0.497

----------
conditions: in n-propyl acetate, 288.15 K
Readout: solubility (mole fraction)

• Cc1cc(Cl)ccc1OCC(=O)O = 0.112

----------
details: in acetonitrile, 318.15 K
Readout: solubility (mole fraction)

• Cc1cc(Cl)ccc1OCC(=O)O = 0.196

----------
conditions: in n-butyl acetate, 283.15 K
Readout: solubility (mole fraction)

• Cc1cc(Cl)ccc1OCC(=O)O = 0.0974

----------
settings: in ethyl acetate, 318.15 K
Readout: solubility (mole fraction)

* Cc1cc(Cl)ccc1OCC(=O)O | 0.25

----------
details: in toluene, 323.15 K
Readout: solubility (mole fraction)

* Cc1cc(Cl)ccc1OCC(=O)O | 0.0515

----------
conditions: in acetone, 288.15 K
Readout: solubility (mole fraction)

• Cc1cc(Cl)ccc1OCC(=O)O = 0.188

----------
details: in acetonitrile, 308.15 K
Readout: solubility (mole fraction)

* Cc1cc(Cl)ccc1OCC(=O)O | 0.128
